Tested on: LC4-1;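 note: growth inhibition of LC4-1 cells, read out with a cell viability assay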
assay name: cells
Assay type: functional, cell-based, Homo sapiens
condition label: Homo sapiens, LC4-1
Description: SANGER: Inhibition of human LC4-1 cell growth in a cell viability assay.
metric: IC50

Below are worked cases with known answers.
{"structure as smiles": "N#Cc1c(O)c2c(-c3ccc(-c4ccccc4O)cc3)csc2[nH]c1=O", "metric": "IC50", "reported value": "563 nM"}
{"structure as smiles": "C=C(c1ccc(C(=O)O)cc1)c1cc2c(cc1C)C(C)(C)CCC2(C)C", "metric": "IC50", "reported value": "> 8000 nM"}
{"structure as smiles": "CCC/C=C/C=C/C(=O)O[C@H]1/C(=C/C(=O)OC)C[C@H]2C[C@H]([C@@H](C)O)OC(=O)C[C@H](O)C[C@@H]3C[C@H](OC(C)=O)C(C)(C)[C@](O)(C[C@@H]4C/C(=C/C(=O)OC)C[C@H](/C=C/C(C)(C)[C@]1(O)O2)O4)O3", "metric": "IC50", "reported value": "> 8 nM"}

Here's the next entry for you.
The compound "COc1cc(-c2nn([C@H]3CC[C@H](N4CCN(C(C)=O)CC4)CC3)c3ncnc(N)c23)ccc1NC(=O)c1cc2ccccc2n1C" showed IC50 equal to > 5120 nM

---

System: COLO-824
assay name: cells
Type: functional, cell-based, Homo sapiens
condition label: Homo sapiens, COLO-824
Description: SANGER: Inhibition of human COLO-824 cell growth in a cell viability assay.
pIC50: −log10 of the molar value. Where a name gives a salt, the structure may show the parent alone.
List of pIC50 values.

Below are worked cases with known answers.
{"compound": "COC1=CC(c2cc3ccccc3[nH]2)=N/C1=C\\c1[nH]c(C)cc1C [OBATOCLAX MESYLATE]", "pIC50": 6.17}
{"compound": "COc1cc(-c2nn([C@H]3CC[C@H](N4CCN(C(C)=O)CC4)CC3)c3ncnc(N)c23)ccc1NC(=O)c1cc2ccccc2n1C", "pIC50": "< 5.29"}
{"compound": "CCN(CC)CCCCNc1ncc2cc(-c3cc(OC)cc(OC)c3)c(NC(=O)NC(C)(C)C)nc2n1", "pIC50": "< 5.70"}
{"compound": "Nc1cccc2c1CN(C1CCC(=O)NC1=O)C2=O (centres undefined) [LENALIDOMIDE]", "pIC50": "< 5.30"}
{"compound": "CS(=O)(=O)c1ccc(C(=O)Nc2ccc(Cl)c(-c3ccccn3)c2)c(Cl)c1", "pIC50": "< 5.00"}

The compound "C=C(c1ccc(C(=O)O)cc1)c1cc2c(cc1C)C(C)(C)CCC2(C)C" showed pIC50 equal to < 5.10

The compound "O=C(O)c1ccc(-c2c[nH]c3ncc(-c4ccccc4)cc23)cc1C1CCCC1" showed pIC50 equal to < 4.80

The compound "Cc1cc([N+](=O)[O-])ccc1NS(=O)(=O)c1cc(Cl)ccc1Cl" showed pIC50 equal to 4.74

The compound "C#Cc1cccc(Nc2ncnc3cc(OCCOC)c(OCCOC)cc23)c1" showed pIC50 equal to < 5.70

---

System: GMS-10;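 note: growth inhibition of GMS-10 cells, read out as cell viability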
assay name: cells
Assay type: functional, cell-based, Homo sapiens
condition label: gms-10
Description: SANGER: Inhibition of human GMS-10 cell growth in a cell viability assay.
metric: IC50 (µM)
Write the answer as a number in µM, unit excluded.

The sequence "CISPLATIN" showed IC50 equal to 85.2

---

Test system: JEG-3
assay name: cells
Format: functional, cell-based, Homo sapiens
condition label: jeg-3
Description: SANGER: Inhibition of human JEG-3 cell growth in a cell viability assay.
metric: IC50

The sequence "BLEOMYCIN" showed IC50 equal to 8.55 µM
